# experimental-system: LAP2, Q96RT1
# Sequence (Q96RT1 other isoform, or with tags, fused parts or gaps): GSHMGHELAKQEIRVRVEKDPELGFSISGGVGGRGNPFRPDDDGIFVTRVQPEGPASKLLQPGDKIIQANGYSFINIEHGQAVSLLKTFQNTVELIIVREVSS
# assay-explanation: holdup assay
# Design: key: below the threshold = too weak to quantify, mostly under pKd 3.1 to 4
# condition: plain residues with an end cap or a label only (N-terminal biotin on a linker: ado-ado)
measurement-name: pKd

Sample answers from the record:
[
  {
    "binder": "TASPAKETSF [SLC2A7, Q6PXP3]",
    "measurement-name": "pKd",
    "measured-result": "below the threshold"
  },
  {
    "binder": "QPCFNKLFPL [LPXN, O60711]",
    "measurement-name": "pKd",
    "measured-result": "below the threshold"
  },
  {
    "binder": "SNAGNTATKA [NOSTRIN, Q8IVI9]",
    "measurement-name": "pKd",
    "measured-result": "below the threshold"
  },
  {
    "binder": "PKRSFIESNV [TANC1, Q9C0D5]",
    "measurement-name": "pKd",
    "measured-result": 5.27
  },
  {
    "binder": "IKAIVDLTGL [TRAF2, Q12933]",
    "measurement-name": "pKd",
    "measured-result": "below the threshold"
  },
  {
    "binder": "LPHPHSTTRV [NLGN2, Q8NFZ4]",
    "measurement-name": "pKd",
    "measured-result": "below the threshold"
  },
  {
    "binder": "LGRSTPQSEV [DGKH, Q86XP1]",
    "measurement-name": "pKd",
    "measured-result": "below the threshold"
  },
  {
    "binder": "PDGQCTVTEV [RNF146, Q9NTX7]",
    "measurement-name": "pKd",
    "measured-result": 4.22
  },
  {
    "binder": "RRLPGKETMA [GRIK2, Q13002]",
    "measurement-name": "pKd",
    "measured-result": "below the threshold"
  },
  {
    "binder": "QMNQTLPVQV [EPHB3, P54753]",
    "measurement-name": "pKd",
    "measured-result": "below the threshold"
  }
]

Asked: // query pKd value for entry AKPSRISTVV [IQSEC2, Q5JU85]
Given back: below the threshold

Asked: Now consider NHSSSPETTA [TRMT13, Q9NUP7] and answer again.
Given back: below the threshold
